Experiment: amyloid nucleation score (Sup35N fusion, yeast selection) (log enrichment); library NNK3; higher = more nucleation; inactive = no reads after selection;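 note: zero at mode of non-aggregating sequences after 7 days selection at 30°C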

ordered-residues | amyloid nucleation score
HDARGLIIFARSHSAESRVR | inactive
PEAVAAKRPSLQYPFASMTS | inactive
RTWIRAYVSMQFRMCQDTDV | inactive
ISYVYFLGPCV | 2.13
NWRLCFNRGRCRYMIMLQKF | inactive
AGQNQVRDGKVIVKACSCMS | inactive
YLRDNKAWLASSSKL | inactive
FGVSFKYFCVQEQLAKDSVA | inactive
LTHPCLMPFMLVVTRLYMAA | -1.03
IPCLQVYFTSTPNPSWSHGH | inactive
LKSWDTIWVEDNYSLC | -0.148
TWILSMWRSCIPNL | inactive
PYFTDAFVNEMDMQCH | inactive
VFVPVYPEFFVRSG | inactive

----------
Test: amyloid nucleation score (Sup35N fusion, yeast selection) (log enrichment); library NNK2; higher = more nucleation; inactive = no reads after selection
Give Met when the value for amyloid nucleation score is at least -0.03. Give Not met when it is less.

substance | label-class
PVNRQNFFSCD | Not met
RIEVLTLCGGEAGSLVMGIV | Met
KKERPNMSWGDHY | Not met
LTLLFGRSVSEWVWNLMDRC | Not met
RLLWLPLHSFMGMDTPSGVY | Met
WVGLHVR | Met
NIQTWGSGHVSTSDG | Met
IWFRIQVCEIPSLIQTIVRR | Not met
FLGVFSYASSMIISVKRERS | Met
VVSVCLLGHNDKVLSYAQLC | Met
GFVVMMFNLANRYSMQGDVG | Met
KSVGVQALMLAKGIYFSING | Met
ATMVSPTSQLAPNMYNASLT | Met
EFSRDRSENIAGTPSLRLNQ | Met
TMIRYVERMVDNLFRNCRLP | Met
CSSEDITYAWQWARWLRS | Met
GSYGQVHSWYVCDFPGWVLR | Met
CLYRTLWSCLWSGMMIFCTD | Not met
RLQRVLS | Not met
RVVQKKQLIV | Met
GNRFNRRLWSQATILEF | Not met
WCFFRVAFNW | Met
IMMNNMAVIFR | Met
TSYRVRGVGSSELCGSLKLR | Met
CWVRISDLCLYKFVGVPMSV | Met
SPLCVF | Not met
NPLAIVAS | Not met
WFENNDESMGQEWNKHCTSV | Met
AIMYFVTCMKILMFVGNYVQ | Not met
KLGTLLSFPTVINVANMIQI | Met
FAFAINRFCDSRRPVLCYWD | Not met
YFIRRKIRMGGHLLTWSWWI | Not met
LYPYAQFCVSVRRLHRLVSR | Met
GRLLFAWLYLCDYGGYIMRV | Not met
LLKKRANGYHYSKNLKCPAR | Not met
IWIKVTRLRVGFLKRVLVVA | Not met
NRHMLNTDRRPQVRLHFGTL | Met
CSRKDYSYRVMKFVFCIYGL | Met
FFSVSNDHPSFFPANVGEVH | Met
SRSAWLRELDPPA | Met
HAPPNCVSSIHSRRVSSWHE | Met
SLKVHSWFGNIYSDFLLTSV | Not met
SDCVTFATCWM | Met
MLKSHVI | Not met
MTIGFNAIYHQFRVTRCLVT | Met
TSFGCWSQAYKMMRFDLCSV | Not met
EPTMVRFDSLFVSDCYMSA | Met
VVYRYRVRHCL | Met
LFIICNSVVHMDLASVGNVS | Met
DFFFCFRYTDLEQE | Not met
VWDNIVPPQLISRRS | Not met
WVTIALYCNKLIVTVRGGIG | Met
YYGRSSLRNRMDVSDVQYPG | Not met
DREVSRVGLD | Met

----------
Assay: amyloid nucleation score (Sup35N fusion, yeast selection) (log enrichment); library NNK1; higher = more nucleation; inactive = no reads after selection
assay-endpoint: amyloid nucleation score

substance | assay-endpoint | value-observed
DSRNTDFTCYFEIYYCCVNL | amyloid nucleation score | 8.07
CGEFGR | amyloid nucleation score | -0.682
EIASLTRCYRSYRIVSWLRG | amyloid nucleation score | 0.341

----------
Assay: amyloid nucleation score (Sup35N fusion, yeast selection) (log enrichment); library NNK3; higher = more nucleation; inactive = no reads after selection

substance | amyloid nucleation score
KVVRVIVSEGNRVIKFTTMP | inactive
GCVLCGIPSAWRSPGASSDA | 1.05
SFRGTSARYFMLVGVLGIFV | -0.2
VEYQNI | inactive
VMIVRLYVIYPMFEVKP | inactive
LNQGHYSVDLSSATGTVTTF | inactive
VSLFGCKIMLRMKFGVCLSG | inactive
RYSYLGVCIKMSRKVKCVVT | 0.086
MVMPGMFGSLRREWHSFFRM | inactive
YRGIKFTYKPGLLGQFHRED | inactive
YVGFVARVVRDYNGYQRDTC | inactive
KVCIHSIEIV | inactive
YYPSEQTIGWPKLTFVDVVL | inactive
RMRKSFLFVWIDFILKR | inactive
KWFMVA | inactive
WNFYGWRVLSHRRTGSVHRL | -0.847
NLSLGQFIKAAVKFVHKPRK | 1.34
FLSFSFYLVYRRKSVRFQ | inactive
SMHRQVPFPMKKHLEHLSMT | inactive
CSWRNRYCMLRRELFGAWRV | inactive
SPTRQLIKFKYSGHYIVHLR | inactive
DPINNYSLFFKLCLELHFFA | inactive
NCHAGPYEVYLVVGPELLLK | inactive
FAYWWRTVTPVCSGLVRYCW | inactive
WDFGPEVLSE | inactive
FSCPDLGRGYVIS | inactive
FNFLVWAQ | inactive
WAAWFYASGVRASEGRDYGG | inactive
GYNCALWDVGCLHVFRPYAN | inactive
TTTLDSQSNNMFGAS | inactive
SFHASGQSSLYKKGDLSTCV | inactive
TTRKNLKSGLVVSL | inactive
LTNSYLDMLRM | inactive
LCVIVTAVKGFTVPWHNFFL | inactive
VGNQKIIMRGALELDRELTC | inactive
SFTNFFNGSVGICFRCTLMC | 2.28
LRRRSLDHKSGSYLVTG | inactive
MDDFLYAVPMWELWKVLRDE | inactive
DYLVFFRPLFNSIDSHWIRS | inactive
IEYWFASRTFWSCRNMVRH | -0.342
PNISGGDAIEGLFFFRVGRE | 1.04
SFERSSSSST | inactive
LLDNFY | inactive
FFFTEFFELHIWTKSLPFTS | inactive
VHSFLKYGGNSAIGLLPEDS | inactive
LYLVKVD | inactive
LHSIFDSVHSCMRFWMIWSE | inactive
NFEIFSRVQWDLC | inactive
LQGQHDAHWQSCSRLSECSQ | inactive
FFSDRLTSTGSMES | inactive
WKFAGHEALWFLKIIEMLR | inactive
SRHFTIEVSQFCIISQGVNL | inactive
GRKAWDEL | inactive
EVKAMTWLVIVETIVFMS | inactive
FSSLGANYNHEILKGCGVGS | inactive
NKVCLDTSAVYYSFRDKDG | inactive
MSICFDPWTRPKCGVYCRCS | inactive
TPLTPSGRLGFLTK | 0.7

----------
This listing pairs sequences with measured amyloid nucleation score.
Test: amyloid nucleation score (Sup35N fusion, yeast selection) (log enrichment); library NNK2; higher = more nucleation; inactive = no reads after selection
assay-endpoint: amyloid nucleation score

ordered-residues | value-observed
MGGLNLCLWSSGLMLVGTGR | 5.24
WYKRVVFPMP | -0.442
CHANFNVG | 1.58
ILEFKINPG | -1.05

----------
Listing: amyloid nucleation score of selected substances
Assay: amyloid nucleation score (Sup35N fusion, yeast selection) (log enrichment); library NNK1; higher = more nucleation; inactive = no reads after selection
assay-endpoint: amyloid nucleation score

substance | value-observed
YHFTSFSNVHHLAHRVGNSF | -0.333
MVFSLSCFKSFTCYTYMCTA | 7.15
LYVTLV | 2.23
LWLIVEDSVYFVGMQGHIFN | -0.381
SCLPDQMKVVVPLMWLKFSR | -0.266
NVDKHVWFGGVIVVNLWHIR | 6.83
KGHSANVYTAPLLCNNCHFF | 6.7
LSGSMGA | -0.105
VNTMPILFFMPCVMKLSV | 1.53

----------
Experiment: amyloid nucleation score (Sup35N fusion, yeast selection) (log enrichment); library NNK1; higher = more nucleation; inactive = no reads after selection
assay-endpoint: amyloid nucleation score

substance | value-observed
FECCAVLLYMGRVNACRVCC | -0.281
LLFYLRSLKMYVLYSGHTMS | 1.25
GCTGPHFVYTDGRMHWSGSS | -0.529
WNIRGVMGLSNVR | -0.058
SKSGLDDGHDA | -0.335
GWYEMASAHHMTDWYGW | -0.337
YLDGVECTN | -0.366
MRSLSVLFGIRTCLTVQWSK | 0.276
AGVIDT | 0.171
PLNSRTCGPFARSSIWDWDT | 0.937
FMTFVYTGTSFSR | 0.523
SGRPGTAQLRVVLGHNQKCA | 1.12
GLGGYT | -0.155
RLMDTYAEAHTQDRDMIRDV | 0.286
LMNFSNWDELR | -1.26
HLGTTNMNVFNVG | 1.79
CGITGMATVLNELPKLKHML | 0.202
SRDASLDRPSRRV | -0.465
TIVRGSNYRPPVWPSDY | -0.535
ICNPGVS | 0.71
NNGAVVSGS | -0.046
RFHNRFLYLFKFIQAQINKC | 0.187
AGSLWFIWGLLSALN | -0.893
VKSADIIVL | -0.357
LFVRFKTYVLP | 0.663
VSHYGCFQTVCDLRVGGPPE | -1.4
SIDGWNSKVKGFEFRMGGT | -0.045
GFYGRICL | 0.101
GFWQLFLRVIPLFSVGYSNC | 0.875
RLLPGFERGVLYYWA | 0.568
GLGVVPITAERRVSLRYSEC | -0.242
LAEGASTL | -0.217
MWWHVSSMQDRDSGDFNGLL | 0.323
YTRVLILNENATAIIWSE | 1.87
GGSMGHPGTLMERSYNLVVA | 0.951
TNILLLHFSDHEFGLEFRYL | 1.68
RLFHFWQSDGLVGSTKRVDY | 0.128
RVSMVEVNLIYYMLPGHA | -0.125
TFVVELS | -1.64
YSSRIVRVSVRRVIHQSLRS | 1.41
FFSPSNKNYKR | -0.215
MEVISRSVLSSLSWFGTVEE | 0.598
SSLVVWNTQSSTLMTLLSYS | -0.915
CLQDMFFTNELSFAGTLLIS | 0.049
GYSYFPNYHVFRVHE | 1.27
AISVWMSMNGPITPDR | 0.907
